Biological target: HSA (Homo sapiens, UniProt P02768)
Construct: purchased Sigma-Aldrich Co
Sequence (P02768 25-609): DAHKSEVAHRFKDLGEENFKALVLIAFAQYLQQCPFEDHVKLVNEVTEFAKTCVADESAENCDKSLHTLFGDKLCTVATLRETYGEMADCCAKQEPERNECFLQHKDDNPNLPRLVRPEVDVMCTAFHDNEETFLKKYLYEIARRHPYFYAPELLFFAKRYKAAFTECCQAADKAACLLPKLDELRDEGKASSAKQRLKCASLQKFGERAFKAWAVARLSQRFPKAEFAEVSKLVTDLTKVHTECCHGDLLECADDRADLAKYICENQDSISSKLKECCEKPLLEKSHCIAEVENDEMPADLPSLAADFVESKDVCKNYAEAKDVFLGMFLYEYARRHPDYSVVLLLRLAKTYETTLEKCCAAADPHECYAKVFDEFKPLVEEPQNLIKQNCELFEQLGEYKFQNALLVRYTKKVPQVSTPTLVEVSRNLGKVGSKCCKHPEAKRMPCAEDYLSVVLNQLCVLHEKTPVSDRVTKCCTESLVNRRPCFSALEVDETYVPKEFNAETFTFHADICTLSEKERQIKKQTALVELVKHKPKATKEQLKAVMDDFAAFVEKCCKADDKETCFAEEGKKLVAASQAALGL
Test: Competitive HSA-fluorescence studies with warfarin and ibuprofen
Format: binding
Conditions: warfarin
OBSERVABLE: HSA-binding constant K, Marker: Warfarin

Sample records with HSA-binding constant K, Marker: Warfarin:
INSERT INTO measurements (compound, observable, result) VALUES
  ('CCN(CC)c1ccc(C=O)c([O][Pd][O]c2cc(N(CC)CC)ccc2C=O)c1 [Complex 1, [Pd(4-Et2N-salo)2]]', 'HSA-binding constant K, Marker: Warfarin', '6.89 (±0.28) × 10^4 M^−1'),
  ('O=Cc1cc(Br)cc(Br)c1[O][Pd][O]c1c(Br)cc(Br)cc1C=O [Complex 2, [Pd(3,5-diBr-salo)2]]', 'HSA-binding constant K, Marker: Warfarin', '1.43 (±0.09) × 10^5 M^−1'),
  ('O=Cc1cc(F)ccc1[O-].O=Cc1cc(F)ccc1[O-].[Pd+2] [Complex 4, [Pd(5-F-salo)2]]', 'HSA-binding constant K, Marker: Warfarin', '8.98 (±0.82) × 10^4 M^−1');

Please go through the list and note HSA-binding constant K, Marker: Warfarin for each compound.
1. COc1ccc(C=O)c([O-])c1.COc1ccc(C=O)c([O-])c1.[Pd+2] [Complex 5, [Pd(4-OMe-salo)2]]
2. O=Cc1cc(Cl)cc(Cl)c1[O-].O=Cc1cc(Cl)cc(Cl)c1[O-].[Pd+2] [Complex 3, [Pd(3,5-diCl-salo)2]]

Response:
1: 1.00 (±0.18) × 10^5 M^−1; 2: 2.47 (±0.09) × 10^5 M^−1

###

Target: HSA (Homo sapiens, UniProt P02768)
Construct: purchased Sigma-Aldrich Co
Assay: Competitive HSA-fluorescence studies with warfarin and ibuprofen
Type: binding
Details: no marker
OBSERVABLE: HSA-binding constant K, No Marker

INSERT INTO results (molecule, observable, result) VALUES
  ('CCN(CC)c1ccc(C=O)c([O][Pd][O]c2cc(N(CC)CC)ccc2C=O)c1 [Complex 1, [Pd(4-Et2N-salo)2]]', 'HSA-binding constant K, No Marker', '1.25 (±0.06) × 10^5 M^−1');

Here are 4 molecules. What values of HSA-binding constant K, No Marker were reported for them?
1. COc1ccc(C=O)c([O-])c1.COc1ccc(C=O)c([O-])c1.[Pd+2] [Complex 5, [Pd(4-OMe-salo)2]]
2. O=Cc1cc(Cl)cc(Cl)c1[O-].O=Cc1cc(Cl)cc(Cl)c1[O-].[Pd+2] [Complex 3, [Pd(3,5-diCl-salo)2]]
3. O=Cc1cc(Br)cc(Br)c1[O][Pd][O]c1c(Br)cc(Br)cc1C=O [Complex 2, [Pd(3,5-diBr-salo)2]]
4. O=Cc1cc(F)ccc1[O-].O=Cc1cc(F)ccc1[O-].[Pd+2] [Complex 4, [Pd(5-F-salo)2]]

Response:
1: 3.56 (±0.12) × 10^5 M^−1; 2: 4.10 (±0.17) × 10^5 M^−1; 3: 4.12 (±0.15) × 10^5 M^−1; 4: 1.38 (±0.05) × 10^5 M^−1

###

Target: BSA (Bos taurus, UniProt P02769)
Construct: purchased Sigma-Aldrich Co
Sequence (P02769 25-607): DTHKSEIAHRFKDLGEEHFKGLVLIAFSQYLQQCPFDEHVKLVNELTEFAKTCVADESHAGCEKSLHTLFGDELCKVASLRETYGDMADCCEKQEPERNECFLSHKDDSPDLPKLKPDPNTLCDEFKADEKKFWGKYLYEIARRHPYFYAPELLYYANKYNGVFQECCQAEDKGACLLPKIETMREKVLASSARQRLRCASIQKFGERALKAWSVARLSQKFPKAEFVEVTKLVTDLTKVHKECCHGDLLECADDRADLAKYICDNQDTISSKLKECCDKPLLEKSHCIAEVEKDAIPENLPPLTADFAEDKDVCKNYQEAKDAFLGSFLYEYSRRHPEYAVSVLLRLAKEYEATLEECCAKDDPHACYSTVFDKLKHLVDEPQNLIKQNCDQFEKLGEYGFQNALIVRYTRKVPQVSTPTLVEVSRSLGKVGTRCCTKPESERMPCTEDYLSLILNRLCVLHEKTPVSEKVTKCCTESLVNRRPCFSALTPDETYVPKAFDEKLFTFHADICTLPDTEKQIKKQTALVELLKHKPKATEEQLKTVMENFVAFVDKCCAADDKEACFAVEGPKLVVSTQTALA
Assay: BSA fluorescence quenching
Assay type: binding, bovine
Conditions: Scatchard
Task for the reader: assign each of the following compounds its reported K BSA-binding constant.

Example cases with answers are listed next.
INSERT INTO results (compound, result) VALUES
  ('O=Cc1cc(Br)cc(Br)c1[O][Pd][O]c1c(Br)cc(Br)cc1C=O [Complex 2, [Pd(3,5-diBr-salo)2]]', '1.50 (±0.06) × 10^6 M^−1'),
  ('O=Cc1cc(Cl)cc(Cl)c1[O-].O=Cc1cc(Cl)cc(Cl)c1[O-].[Pd+2] [Complex 3, [Pd(3,5-diCl-salo)2]]', '7.82 (±0.24) × 10^5 M^−1'),
  ('CCN(CC)c1ccc(C=O)c([O][Pd][O]c2cc(N(CC)CC)ccc2C=O)c1 [Complex 1, [Pd(4-Et2N-salo)2]]', '1.08 (±0.06) × 10^5 M^−1'),
  ('O=Cc1cc(F)ccc1[O-].O=Cc1cc(F)ccc1[O-].[Pd+2] [Complex 4, [Pd(5-F-salo)2]]', '8.79 (±0.13) × 10^4 M^−1');

Prompt: Please give the measured K BSA-binding constant for this compound: COc1ccc(C=O)c([O-])c1.COc1ccc(C=O)c([O-])c1.[Pd+2] [Complex 5, [Pd(4-OMe-salo)2]]
Response: 9.18 (±0.27) × 10^5 M^−1
